Test: qHTS assay to identify small molecule agonists of the endoplasmic reticulum stress response signaling pathway - cell viability counter screen (AID 1159517);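 further: HeLa cells carrying an ER stress response element beta-lactamase reporter; on the % scale 0 is the no-effect control and ±100 the full control effect; nearly all actives have a fitted effect of over 50% in size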
Settings: ESRE-bla HeLa viability, CellTiter-Glo luminescence, 5 h; series mostly up to 61 µM
Records with an inconclusive call do not appear. The source made the active and inactive calls. The call rests on the fitted dose curve.
Endpoint: activity change, negative = cytotoxicity

Compound	activity change, negative = cytotoxicity
CCCCCC[C@@H](O)C/C=C\CCCCCCCC(=O)OC	inactive
C=C1C(=C/C=C2\CCC[C@]3(C)[C@@H]([C@H](C)/C=C/[C@@H](O)C4CC4)CC[C@@H]23)C[C@@H](O)C[C@@H]1O	inactive
CC(C)CC(=O)C1C(=O)c2ccccc2C1=O	inactive
O=C(O)c1nc(Cl)c(Cl)c(Cl)c1Cl	inactive

compound "C#Cc1cccc(Nc2ncnc3cc(OCCOC)c(OCCOC)cc23)c1" , activity change, negative = cytotoxicity observed: inactive

###

Biological target: Cytochrome P450 2C9 (Homo sapiens)
Assay: Cytochrome P450 Family 2 Subfamily C Member 9 (CYP2C9) small molecule antagonists: luciferase reporter qHTS assay (AID 1671198); further: nearly all actives have a fitted effect of over 50% in size; further: potency means the concentration at half of the fitted maximal effect
Conditions: P450-Glo CYP2C9 enzyme assay, luciferin luminescence; series mostly up to 115 µM
Records with an inconclusive call do not appear. The source made the active and inactive calls. Calls come from the whole dose curve; as a rule, active = well fitted inhibition curve with a large enough effect in the repeat runs; inconclusive = weak or mixed curves; inactive = no such curve, though single readings can be large or run the other way.
Endpoint: Potency

Example entries begin here.
Molecule	System under test	Potency
COc1ccc(S(=O)(=O)N2C(=O)[C@@](c3ccccc3OC)(N3C[C@H](O)C[C@H]3C(=O)N(C)C)c3cc(Cl)ccc32)c(OC)c1	Cytochrome P450 2C9 (Homo sapiens)	39.9 µM (active)
CCCCC(CC)CN1C(=O)C2C3C=CC(C3)C2C1=O (stereo not given)	Cytochrome P450 2C9 (Homo sapiens)	7.96 µM (active)
CCCCNc1ccc(C(=O)OCCOCCOCCOCCOCCOCCOCCOCCOCCOC)cc1	Cytochrome P450 2C9 (Homo sapiens)	12.3 µM (active)
Cc1cccc(C)c1OCC(=O)N[C@@H](Cc1ccccc1)[C@@H](O)C[C@H](Cc1ccccc1)NC(=O)[C@H](C(C)C)N1CCCNC1=O	Cytochrome P450 2C9 (Homo sapiens)	13.8 µM (active)
Cc1oc2c(NC(=O)c3c(Cl)cccc3Cl)cccc2c1C(C)(C)O	Cytochrome P450 2C9 (Homo sapiens)	1.59 µM (active)

Below are some molecules; for each one, tell me its Potency.
1. Cc1cc(C(=O)O)ccc1[N+](=O)[O-]
2. CC(COCCO)OCCO (stereo not given)

Outgoing:
1: inactive; 2: inactive

###

Assay: qHTS RealTime-Glo MT Cell Viability Assay in HEK293 cells - 32 hour (AID 1224868); further: nearly all actives have a fitted effect of over 50% in size
Settings: RealTime-Glo luminescence; series mostly up to 76.8 µM
Inconclusive results are not listed. Active and inactive are the calls of the source. The call rests on the fitted dose curve; in most records, active means well fitted cell-killing curve with a large enough effect in the repeat runs; inconclusive means weak or mixed curves, or effect the other way; inactive means flat fitted curve, though single readings scatter.
Thanks in advance; please answer with one of these: 1 = active, -1 = inactive

Record excerpt, results attached:
Compound	Label value
Cc1cc(C(=O)O)ccc1[N+](=O)[O-]	-1
C=CC(=O)OCCOc1ccccc1	-1
CCO[C@H](Cc1ccc(OCCc2ccc(OS(C)(=O)=O)cc2)cc1)C(=O)O	-1

Incoming: Recorded call for "C/C=C(/C(=C/C)c1ccc(OC(C)=O)cc1)c1ccc(OC(C)=O)cc1" ?
Outgoing: -1

Incoming: Recorded call for "C[C@H]1C[C@H]2[C@@H]3CCC4=CC(=O)C=C[C@]4(C)[C@@]3(Cl)[C@@H](O)C[C@]2(C)[C@@]1(O)C(=O)CO" ?
Outgoing: -1

Incoming: Recorded call for O=C1OC(CN2CCOCC2)CN1/N=C/c1ccc([N+](=O)[O-])o1 (stereo not given) ?
Outgoing: -1

Incoming: Recorded call for "OCCN1CCN(CCCN2c3ccccc3C=Cc3ccccc32)CC1" ?
Outgoing: -1

Incoming: Recorded call for "C=C1C(=C/C=C2\CCC[C@]3(C)[C@@H]([C@H](C)/C=C/[C@@H](O)C4CC4)CC[C@@H]23)C[C@@H](O)C[C@@H]1O" ?
Outgoing: 1

Incoming: Recorded call for C[N+]1(C)CCC(OC(=O)C(O)(c2ccccc2)C2CCCC2)C1 (stereo not given) ?
Outgoing: -1

Incoming: Recorded call for "CCCCCCc1ccc(-c2ccc(C#N)cc2)cc1" ?
Outgoing: -1

###

Experiment: qHTS assay for small molecules that induce genotoxicity in human embryonic kidney cells expressing luciferase-tagged ATAD5 - cell viability (AID 651634); further: nearly all actives have a fitted effect of over 25% in size
Conditions: HEK293T ATAD5-luc cells viability, CellTiter-Fluor, 15.5 h; series mostly up to 83.3 µM
Records with an inconclusive call do not appear. Calls of active or inactive are those of the source. Calls follow the shape of the full dose curve.
Thanks in advance; please answer with one of these: 1 for active, -1 for inactive

Record excerpt, results attached:
Compound	Label value
OCc1cc(C(O)CNCCCCCCOCCCCc2ccccc2)ccc1O (stereo not drawn)	-1
CCO[C@H](Cc1ccc(OCCc2ccc(OS(C)(=O)=O)cc2)cc1)C(=O)O	-1
CN1C[C@H]2c3ccccc3Oc3ccc(Cl)cc3[C@@H]2C1	-1
CCCCC/C=C\C/C=C\CCCCCCCC(=O)NC(C)c1ccccc1 (stereo not drawn)	-1
CCOC(=O)COC(=O)c1cc(Oc2ccc(C(F)(F)F)cc2Cl)ccc1[N+](=O)[O-]	-1

Now consider a different compound.
Incoming: Recorded call for "CCN(CC)CCNc1ccc(CNC=O)c2sc3ccc(OC)cc3c(=O)c12" ?
Outgoing: 1

###

Assay: Human pregnane X receptor (PXR) small molecule agonists, qHTS cell viability counter screen (AID 1346977); further: nearly all actives have a fitted effect of over 50% in size
Details: PXR-Luc HepG2 viability, CellTiter-Fluor, 24 h; series mostly up to 92.4 µM
Inconclusive results are not listed. Activity calls are given as the source filed them. Calls follow the shape of the dose curve; as a rule, active = well fitted cell-killing curve with a large enough effect in the repeat runs; inconclusive = weak or mixed curves, or effect the other way; inactive = flat fitted curve, though single readings scatter.
Thanks in advance; please answer with one of these: True for active, False for inactive

Molecule	Label value
CCOCC(O)COc1ccc(NC(=O)CC[S+](C)C)cc1 (configuration not stated)	False
CCCCCCCCCc1ccc(OCCOCCO)cc1	True
O=CC1CC=CCC1 (configuration not stated)	False
CCCCCCCCCCCCCCCCOS(=O)(=O)O	False
CNC(=O)CN(CCN(CCN(CC(=O)[O-])CC(=O)NC)CC(=O)[O-])CC(=O)[O-].O.[Gd+3]	False

Incoming: Recorded call for CC1=CCCC(C)(C)C12CCC(C)O2 (configuration not stated) ?
Outgoing: False

Incoming: Recorded call for O=C1OC(=O)C2C3C=CC(C3)C12 (configuration not stated) ?
Outgoing: False

###

Assay: qHTS assay to test for compound auto fluorescence at 535 nm (green) in HEK293 cells (AID 720680); further: on the % scale 0 is the no-effect control and ±100 the full control effect
Settings: green autofluorescence 485/535 nm; series mostly up to 91.3 µM
Calls of active or inactive are those of the source. Calls come from the whole dose curve; as a rule, active = well fitted curve in the direction sought with a large enough effect in the repeat runs; inconclusive = weak or mixed curves; inactive = flat fitted curve, though single readings scatter.
Endpoint: fluorescence, % of fluorescein

Example entries begin here.
Compound	fluorescence, % of fluorescein
C/C(=C(\CCOP(=O)(O)O)SC(=O)c1ccccc1)N(C=O)Cc1cnc(C)nc1N	-0.205% [at 18.6 µM] (inactive)
CCCOC(C(=O)OC1CCN(C)CC1)(c1ccccc1)c1ccccc1	inactive
COc1ccnc(CS(=O)c2nc3ccc(OC(F)F)cc3[nH]2)c1OC (stereo unspecified)	inactive
CNC(=O)CN(CCN(CCN(CC(=O)[O-])CC(=O)NC)CC(=O)[O-])CC(=O)[O-].O.[Gd+3]	inactive
CC(C)O.CC(C)O.CCOC(=O)/C=C(\C)O.CCOC(=O)/C=C(\C)O.[Ti]	inactive

compound "CC1=CC[C@H](C(C)C)C=C1" , fluorescence, % of fluorescein observed: inactive

###

Target: Androgen receptor (Homo sapiens)
Assay: qHTS assay to identify small molecule antagonists of the androgen receptor (AR) signaling pathway using the MDA cell line in the presence of 0.5 nM R1881 (AID 1259243)
Conditions: MDA-kb2 MMTV-luciferase, R1881 0.5 nM, 16 h; series mostly up to 42.5 µM
Results filed as inconclusive are left out. Active and inactive are the calls of the source. Calls come from the whole dose curve; as a rule, active = well fitted inhibition curve with a large enough effect in the repeat runs; inconclusive = weak or mixed curves; inactive = no such curve, though single readings can be large or run the other way.
Thanks in advance; please answer with one of these: active, inactive

Incoming: Recorded call for "COc1ccc2cccc(CCNC(C)=O)c2c1" ?
Outgoing: inactive

###

Assay: qHTS assay to identify small molecule agonists of the androgen receptor (AR) signaling pathway in the presence of an antagonist - cell viability counter screen (AID 1259379); further: nearly all actives have a fitted effect of over 25% in size
Settings: MDA-kb2 viability, CellTiter-Fluor, 16 h; series mostly up to 92.4 µM
Inconclusive results are not listed. Calls of active or inactive are those of the source. The call rests on the fitted dose curve; in most records, active means well fitted cell-killing curve with a large enough effect in the repeat runs; inconclusive means weak or mixed curves, or effect the other way; inactive means flat fitted curve, though single readings scatter.
Thanks in advance; please answer with one of these: 1 (active), 0 (inactive)

Compound	Label value
CC(C)Nc1ccc(NC(C)C)c2c1C(=O)c1ccccc1C2=O	1
Cn1c(=O)cc(Oc2ccc(F)cc2F)c2cnc(NCC(C)(C)O)nc21	0

Incoming: Recorded call for "CCOc1ccc(N=Nc2ccc(/C=C/c3ccc(N=Nc4ccc(OCC)cc4)cc3S(=O)(=O)O)c(S(=O)(=O)O)c2)cc1" ?
Outgoing: 1

###

Target: Estrogen receptor beta (Homo sapiens)
Test: qHTS assay to identify small molecule antagonists of the estrogen receptor beta (ER-beta) signaling pathway (AID 1259378)
Settings: ER-beta-UAS-bla HEK293T, beta-lactamase FRET ratio, 16 h; series mostly up to 92.4 µM
Inconclusive results are not listed. Active and inactive are the calls of the source. The call rests on the fitted dose curve; in most records, active means well fitted inhibition curve with a large enough effect in the signal ratio in the repeat runs (not every such curve was filed as active); inconclusive means weak or mixed curves, or effect the other way; inactive means no such curve, though single readings can be large or run the other way; the % refers to the signal ratio.
Thanks in advance; please answer with one of these: active, inactive

Record excerpt, results attached:
Compound	Label value
CCOC(=O)C(O)c1ccccc1 (configuration not stated)	inactive
O=[N+]([O-])c1cccc(S(=O)(=O)O)c1	active
CCOC(=O)C(=O)CCc1ccccc1	inactive
CCN(CC)c1ccc(C(=C2C=CC(=[N+](CC)CC)C=C2)c2cc(S(=O)(=O)O)ccc2S(=O)(=O)[O-])cc1	inactive
CCC(Cl)CCC(Cl)C(Cl)CC(Cl)C(Cl)C(Cl)CCl (configuration not stated)	inactive
CCO[Si](CCCCl)(OCC)OCC	inactive
Cc1oc(-c2ccccc2)nc1CCOc1cccc2c1ccn2CCC(=O)O	active
CNCCCCOc1ccccc1Cc1ccccc1	active

Incoming: Recorded call for "C=C1[C@H]2CC[C@@H]3[C@H]2C(C)(C)CCC[C@]13C" ?
Outgoing: inactive

Incoming: Recorded call for "CCCCOC(=O)CCCCCCCC(=O)OCCCC" ?
Outgoing: inactive

Incoming: Recorded call for "CCCCNc1ccc(C(=O)OCCOCCOCCOCCOCCOCCOCCOCCOCCOC)cc1" ?
Outgoing: inactive

Incoming: Recorded call for O=C(O)C(S)C(S)C(=O)O (configuration not stated) ?
Outgoing: inactive

Where these numbers come from: PubChem BioAssay (Tox21)
